Where do the numbers come from? From the supplement of paper PMC9112550.

# Tested on: Escherichia coli TOP10;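 further: peptides expressed intracellularly from a pBAD plasmid library in pooled LB shake-flask culture, induced with 0.3% L-arabinose, DNA abundance read by NGS, three biological replicates, DESeq2 with apeglm shrinkage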
# Protocol Summary: shrunken log2 fold change of peptide-encoding DNA abundance (4.5 h post-induction vs induction); higher = less antimicrobial activity (less host growth inhibition)
# Test Settings: time post-induction: 4.5 h; library: site-saturation at positions 5, 18, 19, 20

| Macromolecule Sequence | Target | shrunken log2 fold change |
| --- | --- | --- |
| RRIRYRPPRLPRPRPRPHKQPRP | Escherichia coli TOP10 | -0.0853 |
| RRIRDRPPRLPRPRPRPGGQPRP | Escherichia coli TOP10 | 0.211 |
| RRIRHRPPRLPRPRPRPARKPRP | Escherichia coli TOP10 | -0.164 |
| RRIRCRPPRLPRPRPRPINFPRP | Escherichia coli TOP10 | -0.235 |
| RRIRYRPPRLPRPRPRPILCPRP | Escherichia coli TOP10 | -0.0389 |
| RRIRSRPPRLPRPRPRPDSPPRP | Escherichia coli TOP10 | 0.242 |
| RRIRDRPPRLPRPRPRPFLKPRP | Escherichia coli TOP10 | -0.212 |
| RRIRRRPPRLPRPRPRPMPVPRP | Escherichia coli TOP10 | 0.388 |
| RRIRSRPPRLPRPRPRPEENPRP | Escherichia coli TOP10 | 0.64 |
| RRIRHRPPRLPRPRPRPHSQPRP | Escherichia coli TOP10 | -0.224 |
| RRIRDRPPRLPRPRPRPSDWPRP | Escherichia coli TOP10 | 0.137 |
| RRIRFRPPRLPRPRPRPHCRPRP | Escherichia coli TOP10 | -0.0499 |
| RRIRYRPPRLPRPRPRPQANPRP | Escherichia coli TOP10 | -0.694 |
| RRIRWRPPRLPRPRPRPQVEPRP | Escherichia coli TOP10 | -0.00667 |
| RRIRVRPPRLPRPRPRPRWLPRP | Escherichia coli TOP10 | 0.211 |
| RRIRTRPPRLPRPRPRPVRMPRP | Escherichia coli TOP10 | 0.148 |
| RRIRFRPPRLPRPRPRPFVCPRP | Escherichia coli TOP10 | -0.398 |
| RRIRHRPPRLPRPRPRPEFVPRP | Escherichia coli TOP10 | 0.02 |
| RRIRTRPPRLPRPRPRPCACPRP | Escherichia coli TOP10 | 0.0169 |
| RRIRPRPPRLPRPRPRPKDRPRP | Escherichia coli TOP10 | -0.114 |
| RRIRVRPPRLPRPRPRPNCHPRP | Escherichia coli TOP10 | -0.201 |
| RRIRFRPPRLPRPRPRPCGTPRP | Escherichia coli TOP10 | -0.207 |
| RRIRMRPPRLPRPRPRPHHFPRP | Escherichia coli TOP10 | -0.00112 |
| RRIRFRPPRLPRPRPRPCIMPRP | Escherichia coli TOP10 | -0.953 |
| RRIRARPPRLPRPRPRPMDCPRP | Escherichia coli TOP10 | 0.181 |
| RRIRKRPPRLPRPRPRPHTLPRP | Escherichia coli TOP10 | -0.168 |
| RRIRHRPPRLPRPRPRPRIHPRP | Escherichia coli TOP10 | -0.473 |
| RRIRCRPPRLPRPRPRPPEHPRP | Escherichia coli TOP10 | 0.0824 |
| RRIRVRPPRLPRPRPRPIHDPRP | Escherichia coli TOP10 | -0.0895 |
| RRIRQRPPRLPRPRPRPKQSPRP | Escherichia coli TOP10 | -0.0143 |
| RRIRKRPPRLPRPRPRPRNHPRP | Escherichia coli TOP10 | 0.197 |
| RRIRCRPPRLPRPRPRPKRQPRP | Escherichia coli TOP10 | 0.13 |
| RRIRFRPPRLPRPRPRPKWQPRP | Escherichia coli TOP10 | 0.000886 |
| RRIRERPPRLPRPRPRPHDGPRP | Escherichia coli TOP10 | -0.532 |
| RRIRNRPPRLPRPRPRPCYGPRP | Escherichia coli TOP10 | -0.102 |
| RRIRGRPPRLPRPRPRPTLCPRP | Escherichia coli TOP10 | 0.443 |
| RRIRTRPPRLPRPRPRPHHWPRP | Escherichia coli TOP10 | -0.0973 |
| RRIRPRPPRLPRPRPRPHKNPRP | Escherichia coli TOP10 | -0.0554 |
| RRIRCRPPRLPRPRPRPYAIPRP | Escherichia coli TOP10 | -0.803 |
| RRIRWRPPRLPRPRPRPQLMPRP | Escherichia coli TOP10 | 0.13 |
| RRIRERPPRLPRPRPRPYVAPRP | Escherichia coli TOP10 | -0.72 |
| RRIRSRPPRLPRPRPRPRRTPRP | Escherichia coli TOP10 | 0.183 |
| RRIRQRPPRLPRPRPRPHHTPRP | Escherichia coli TOP10 | -0.0489 |
| RRIRGRPPRLPRPRPRPVLMPRP | Escherichia coli TOP10 | 0.316 |
| RRIRVRPPRLPRPRPRPLDSPRP | Escherichia coli TOP10 | -0.19 |
| RRIRRRPPRLPRPRPRPIDEPRP | Escherichia coli TOP10 | -0.106 |
| RRIRYRPPRLPRPRPRPDAHPRP | Escherichia coli TOP10 | -0.0156 |
| RRIRCRPPRLPRPRPRPDWEPRP | Escherichia coli TOP10 | -0.524 |
| RRIRCRPPRLPRPRPRPKLGPRP | Escherichia coli TOP10 | 0.0989 |
| RRIRWRPPRLPRPRPRPHYCPRP | Escherichia coli TOP10 | -0.269 |
| RRIRTRPPRLPRPRPRPNHQPRP | Escherichia coli TOP10 | -0.35 |
| RRIRFRPPRLPRPRPRPCQLPRP | Escherichia coli TOP10 | -0.938 |
| RRIRRRPPRLPRPRPRPIMSPRP | Escherichia coli TOP10 | -0.0839 |
| RRIRNRPPRLPRPRPRPPQNPRP | Escherichia coli TOP10 | -0.0172 |
| RRIRTRPPRLPRPRPRPSCFPRP | Escherichia coli TOP10 | -0.0671 |
| RRIRERPPRLPRPRPRPMSAPRP | Escherichia coli TOP10 | 0.00792 |
| RRIRSRPPRLPRPRPRPEFDPRP | Escherichia coli TOP10 | 0.202 |
| RRIRTRPPRLPRPRPRPNAGPRP | Escherichia coli TOP10 | 0.0361 |
| RRIRNRPPRLPRPRPRPSAFPRP | Escherichia coli TOP10 | -0.249 |
| RRIRLRPPRLPRPRPRPWMWPRP | Escherichia coli TOP10 | 0.154 |
| RRIRLRPPRLPRPRPRPTLRPRP | Escherichia coli TOP10 | 0.161 |
| RRIRLRPPRLPRPRPRPDHWPRP | Escherichia coli TOP10 | 0.143 |
| RRIRARPPRLPRPRPRPFDKPRP | Escherichia coli TOP10 | -0.107 |
